# studySystem: HIV-1 pseudovirus AC10.0.29 (HIV-1)
# measurementProtocol: cell-based or functional assay
In this section we review reported IC80 (neutralization in TZM.bl cells) values for a set of binders.

- binder: "MS-89 (antibody, V domains shown) VH: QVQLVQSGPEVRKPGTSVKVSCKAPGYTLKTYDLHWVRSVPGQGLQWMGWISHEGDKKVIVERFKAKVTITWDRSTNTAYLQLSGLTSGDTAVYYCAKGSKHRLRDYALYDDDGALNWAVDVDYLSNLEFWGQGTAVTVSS VL: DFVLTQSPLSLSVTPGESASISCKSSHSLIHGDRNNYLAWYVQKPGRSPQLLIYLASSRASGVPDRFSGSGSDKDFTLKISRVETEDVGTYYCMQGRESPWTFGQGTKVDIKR"
  unitsSymbol: "µg/mL"
  IC80 (neutralization in TZM.bl cells): 0.618
- binder: "MS-77 (antibody, V domains shown) VH: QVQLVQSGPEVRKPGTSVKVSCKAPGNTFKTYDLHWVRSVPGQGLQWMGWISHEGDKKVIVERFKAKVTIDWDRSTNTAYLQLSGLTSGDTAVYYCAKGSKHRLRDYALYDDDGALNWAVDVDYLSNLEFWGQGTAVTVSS VL: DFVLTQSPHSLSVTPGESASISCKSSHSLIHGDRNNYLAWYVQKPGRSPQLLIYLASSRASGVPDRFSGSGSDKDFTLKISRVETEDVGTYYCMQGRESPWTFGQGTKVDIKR"
  unitsSymbol: "µg/mL"
  IC80 (neutralization in TZM.bl cells): 0.311
- binder: "MS-92 (antibody, V domains shown) VH: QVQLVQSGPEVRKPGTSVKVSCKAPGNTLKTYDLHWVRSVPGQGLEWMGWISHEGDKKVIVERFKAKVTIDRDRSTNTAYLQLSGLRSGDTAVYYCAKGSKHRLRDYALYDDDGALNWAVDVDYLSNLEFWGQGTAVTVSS VL: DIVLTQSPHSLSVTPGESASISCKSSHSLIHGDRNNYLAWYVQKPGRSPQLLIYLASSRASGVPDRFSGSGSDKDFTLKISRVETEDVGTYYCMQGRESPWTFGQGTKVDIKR"
  unitsSymbol: "µg/mL"
  IC80 (neutralization in TZM.bl cells): 0.446
- binder: "MS-78 (antibody, V domains shown) VH: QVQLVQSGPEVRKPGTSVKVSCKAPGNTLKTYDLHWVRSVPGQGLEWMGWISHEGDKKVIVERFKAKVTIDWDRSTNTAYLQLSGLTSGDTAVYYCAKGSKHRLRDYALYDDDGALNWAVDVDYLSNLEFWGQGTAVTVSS VL: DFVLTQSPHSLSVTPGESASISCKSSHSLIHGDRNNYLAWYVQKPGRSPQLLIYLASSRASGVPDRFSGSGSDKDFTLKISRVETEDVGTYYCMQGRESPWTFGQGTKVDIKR"
  unitsSymbol: "µg/mL"
  IC80 (neutralization in TZM.bl cells): 0.225
- binder: "MS-76 (antibody, V domains shown) VH: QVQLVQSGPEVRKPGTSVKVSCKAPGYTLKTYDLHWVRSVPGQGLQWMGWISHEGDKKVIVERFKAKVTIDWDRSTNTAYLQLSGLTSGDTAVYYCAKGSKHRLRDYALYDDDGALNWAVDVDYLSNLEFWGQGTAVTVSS VL: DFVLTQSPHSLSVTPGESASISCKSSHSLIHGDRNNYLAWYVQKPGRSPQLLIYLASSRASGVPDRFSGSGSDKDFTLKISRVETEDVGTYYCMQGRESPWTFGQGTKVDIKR"
  unitsSymbol: "µg/mL"
  IC80 (neutralization in TZM.bl cells): 0.368
- binder: "MS-81 (antibody, V domains shown) VH: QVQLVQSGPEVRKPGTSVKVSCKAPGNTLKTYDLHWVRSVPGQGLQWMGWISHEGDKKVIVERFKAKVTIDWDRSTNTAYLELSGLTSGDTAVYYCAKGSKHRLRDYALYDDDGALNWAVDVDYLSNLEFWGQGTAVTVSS VL: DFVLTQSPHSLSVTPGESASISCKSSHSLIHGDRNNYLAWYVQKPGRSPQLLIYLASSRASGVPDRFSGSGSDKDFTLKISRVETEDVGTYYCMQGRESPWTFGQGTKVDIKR"
  unitsSymbol: "µg/mL"
  IC80 (neutralization in TZM.bl cells): 0.324
- binder: "MS-84 (antibody, V domains shown) VH: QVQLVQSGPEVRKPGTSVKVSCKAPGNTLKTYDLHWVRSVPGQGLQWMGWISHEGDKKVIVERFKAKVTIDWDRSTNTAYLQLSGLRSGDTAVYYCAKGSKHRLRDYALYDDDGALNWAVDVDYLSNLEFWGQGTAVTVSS VL: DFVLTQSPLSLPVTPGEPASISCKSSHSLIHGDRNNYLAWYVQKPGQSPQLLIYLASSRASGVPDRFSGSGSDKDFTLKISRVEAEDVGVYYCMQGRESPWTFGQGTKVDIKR"
  unitsSymbol: "µg/mL"
  IC80 (neutralization in TZM.bl cells): 0.257
- binder: "MS-87 (antibody, V domains shown) VH: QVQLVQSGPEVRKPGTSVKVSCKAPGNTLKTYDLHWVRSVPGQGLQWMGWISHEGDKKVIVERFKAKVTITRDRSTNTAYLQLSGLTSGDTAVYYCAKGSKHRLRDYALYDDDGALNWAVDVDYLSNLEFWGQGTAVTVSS VL: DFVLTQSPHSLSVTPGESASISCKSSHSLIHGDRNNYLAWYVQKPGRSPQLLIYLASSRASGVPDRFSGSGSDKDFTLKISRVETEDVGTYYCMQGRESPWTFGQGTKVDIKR"
  unitsSymbol: "µg/mL"
  IC80 (neutralization in TZM.bl cells): 0.328
- binder: "MS-82 (antibody, V domains shown) VH: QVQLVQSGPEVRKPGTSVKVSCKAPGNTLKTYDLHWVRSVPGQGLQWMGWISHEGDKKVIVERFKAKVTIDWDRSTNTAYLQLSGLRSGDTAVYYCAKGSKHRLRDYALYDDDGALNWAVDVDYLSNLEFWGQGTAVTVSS VL: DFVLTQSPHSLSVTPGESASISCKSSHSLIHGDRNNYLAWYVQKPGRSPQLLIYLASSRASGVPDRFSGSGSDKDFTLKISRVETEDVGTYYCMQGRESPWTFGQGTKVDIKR"
  unitsSymbol: "µg/mL"
  IC80 (neutralization in TZM.bl cells): 0.267

Every entry's value here was drawn from patent US20220025021A1.
